B1: library; a variant is named by its letters at N, in order (parent)
chain: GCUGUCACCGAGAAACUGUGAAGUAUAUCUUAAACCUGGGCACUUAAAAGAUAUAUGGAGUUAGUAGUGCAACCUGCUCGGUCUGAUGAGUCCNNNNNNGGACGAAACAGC

- Variants of: B1
- METHOD SUMMARY: FACS-Seq fitted mean relative fluorescence mCherry/BFP without ligand (log10 relative fluorescence); HEK293T; ligand: cyclic di-GMP (c-di-GMP-II aptamer); higher = higher reporter protein expression
- CONDITION PARAMETERS: ligand present: no
variants and their reported FACS-Seq fitted mean (log10)
Answer with the value's number alone.

Recorded FACS-Seq fitted mean (log10), per entry:
>>> readout_number("GAGAUU")
-0.388
>>> readout_number("CGUUAU")
-0.444
>>> readout_number("AUUACG")
-0.439
>>> readout_number("GAGAGA")
-0.796

### Prompt Name the recorded FACS-Seq fitted mean (log10) for ACAUAA .
### Response -0.399

### Prompt Name the recorded FACS-Seq fitted mean (log10) for CUCGGA .
### Response -0.14
